Each entry below carries its recorded Kd.
system: T1, human TF ECD-His6 (human, UniProt P13726 33-251)
T1 construct: Expi293-derived; Biacore used TF-His; also called TF-His; hTF
assayText: SPR (Biacore), TF-His over coupled antibody
readoutName: Kd (nM)

- 43D (antibody, human IgG1, V domains shown, Human IgG1; also called antibody designated 43D) VH: QVQLQQWGAGLLKPSETLSLTCAVYGGSLSGYYWSWIRQPPGKGLEWIGEIGASGSTRYNPSLKSRVTISVDTSKNQFSLKLSSVTAADTAVYYCARDTPYYYEGGYYYYMDVWGKGTTVTVSS VL: EIVLTQSPGTLSLSPGERATLSCRASQSVSSSYLAWYQQKPGQAPRLLIYGASSRATGIPDRFSGSGSGTDFTLTISRLEPEDFAVYYCQQVGVVPYTFGGGTKVEIK: 2.09
- 25G1 (antibody, human IgG1, V domains shown, Human IgG1; also called antibody designated 25G1) VH: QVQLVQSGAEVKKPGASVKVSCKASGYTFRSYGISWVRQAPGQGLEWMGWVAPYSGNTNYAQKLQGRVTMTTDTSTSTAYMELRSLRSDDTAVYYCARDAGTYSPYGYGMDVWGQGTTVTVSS VL: DIQMTQSPSTLSASVGDRVTITCRASHSIDSWLAWYQQKPGKAPKLLIYKASYLESGVPSRFSGSGSGTEFTLTISSLQPDDFATYYCQLFQSLPPFTFGGGTKVEIK: 0.94
- 43B7 (antibody, human IgG1, V domains shown, Human IgG1; also called antibody designated 43B7) VH: QVQLQESGPGLVKPSQTLSLTCTVSGGSISSGQYWSWIRQHPGKGLEWIGEIYYSGSTRYNPSLKSRVTISVDTSKNQFSLKLSSVTAADTAVYYCARDAPYYYGGGYYYYMDVWGKGTTVTVSS VL: EIVLTQSPGTLSLSPGERATLSCRASESVDSSYLAWYQQKPGQAPRLLIYGADSRATGIPDRFSGSGSGTDFTLTISRLEPEDFAVYYCQQDGVVPYTFGGGTKVEIK: 0.14
